# Tested on: Mycobacterium tuberculosis
# assay_procedure: Cornell - Phenotypic assay to identify agents that inhibit growth of Mycobacterium tuberculosis
# Assay type: functional
# Set-up: scale not given: direction of the effect not stated beside the values
# condition: 10 mM as filed; unlikely as a test dose
The campaign covered roughly 53,000 compounds. About 900 (1.7%) showed an effect of 50% or more. Only a selection was taken, and strong results are over-represented in it overall.
Binned Percent Effect; ranges: lo: < -10%; mid: ≥ -10% and < 40%; hi: ≥ 40%

Sample answers from the record:
INSERT INTO assay_data (compound, target_desc, assigned_class) VALUES
  ('CCc1nc(C2CCCN2C(=O)c2csc(COC)n2)no1 (stereo unspecified)', 'Mycobacterium tuberculosis', 'lo'),
  ('CC(C)c1nnc(CN(C)C(c2ccccc2)c2ccc(F)cc2)o1 (stereo unspecified)', 'Mycobacterium tuberculosis', 'mid'),
  ('COc1cc(C2(C(=O)N3CCCC(n4cncn4)C3)CC2)ccc1C (stereo unspecified)', 'Mycobacterium tuberculosis', 'mid'),
  ('COc1ccccc1NC(=O)CC(C)NCc1scnc1C (stereo unspecified)', 'Mycobacterium tuberculosis', 'lo');

*Q* Note: place this compound into its band. Item: O=C(c1ccncc1)N1CCCC1c1nc(O)cc(-c2ccccn2)n1 (stereo unspecified)
*A* lo

*Q* Note: place this compound into its band. Item: CCOC(=O)c1n[nH]cc1-c1cncn1CC(C)n1nc(C)cc1C (stereo unspecified)
*A* lo

*Q* Note: place this compound into its band. Item: `O=C(c1cc(COc2ccc3c(c2)OCO3)[nH]n1)N1CCOCC1`
*A* mid

*Q* Note: place this compound into its band. Item: COc1ccccc1NC(=O)CC(C)NCCc1sc(C)nc1C (stereo unspecified)
*A* hi
